- Tested on: Ba/F3 P210-BCR-ABL1 RUNX1-/mut (mouse)
- METHOD SUMMARY: drug sensitivity score (DSS) (DSS score); higher = more sensitive (stronger growth inhibition); extreme values may be limits of the assay
MEASURE: drug sensitivity score

{"MOLECULE": "CCC1=C[C@@H]2CN(C1)Cc1c([nH]c3ccccc13)[C@@](C(=O)OC)(c1cc3c(cc1OC)N(C)[C@H]1[C@@](O)(C(=O)OC)[C@H](OC(C)=O)[C@]4(CC)C=CCN5CC[C@]31[C@@H]54)C2 [Vinorelbine]", "MEASURED RESULT": 36.1}
{"MOLECULE": "NCCNc1ccc(NCCN)c2c1C(=O)c1ccncc1C2=O [Pixantrone]", "MEASURED RESULT": 2.45}
{"MOLECULE": "NC(=O)c1cccc(-c2cccc(OC(=O)NC3CCCCC3)c2)c1 [URB597]", "MEASURED RESULT": 0.15}
{"MOLECULE": "CCN(CC)CCN(Cc1ccc(-c2ccc(C(F)(F)F)cc2)cc1)C(=O)Cn1c(SCc2ccc(F)cc2)nc(=O)c2c1CCC2 [Darapladib]", "MEASURED RESULT": 2.65}
{"MOLECULE": "CCNC(=O)CCC/C=C\\C[C@@H]1[C@@H](/C=C/[C@@H](O)CCc2ccccc2)[C@H](O)C[C@@H]1O [Bimatoprost]", "MEASURED RESULT": 0.1}
{"MOLECULE": "NC[C@@](O)(c1ccc(Cl)cc1)c1ccc(-c2cn[nH]c2)cc1", "MEASURED RESULT": 0.05}
{"MOLECULE": "O=C1c2c(O)ccc(O)c2C(=O)c2c(NCCNCCO)ccc(NCCNCCO)c21 [Mitoxantrone]", "MEASURED RESULT": 29.1}

----------
- Test system: Mye-BP RUNX1 p.R107C
- METHOD SUMMARY: drug sensitivity score (DSS) (DSS score); higher = more sensitive (stronger growth inhibition); extreme values may be limits of the assay

{"MOLECULE": "CN(C)c1nc(N(C)C)nc(N(C)C)n1 [Altretamine]", "drug sensitivity score": 0}
{"MOLECULE": "C[C@@]1(C(=O)Nc2ccc(F)nc2)CCCN1c1nc(Nc2cc(C3CC3)n[nH]2)c2cccn2n1", "drug sensitivity score": 8.6}
{"MOLECULE": "c1ccc2c(CCNc3ccc(Nc4ccncc4)cc3)c[nH]c2c1 [Serdemetan]", "drug sensitivity score": 7.4}
{"MOLECULE": "C[C@]12C=CC(=O)C=C1CC[C@@H]1[C@@H]2C(=O)C[C@@]2(C)[C@H]1CC[C@]2(O)C(=O)CO [Prednisone]", "drug sensitivity score": 0}
{"MOLECULE": "CS(=O)(=O)c1ccc(C(=O)Nc2ccc(Cl)c(-c3ccccn3)c2)c(Cl)c1 [Vismodegib]", "drug sensitivity score": 0}
{"MOLECULE": "COc1cc2c(Oc3ccc(NC(=O)C4(C(=O)Nc5ccc(F)cc5)CC4)cc3F)ccnc2cc1OCCCN1CCOCC1 [Foretinib]", "drug sensitivity score": 4.6}
{"MOLECULE": "Nc1nc2[nH]cnc2c(=S)[nH]1 [Thioguanine]", "drug sensitivity score": 3.4}
{"MOLECULE": "COc1c(C)cnc(Cn2cnc3c(Cl)nc(N)nc32)c1C [BIIB021]", "drug sensitivity score": 21.1}
{"MOLECULE": "CCC/C=C/C=C/C(=O)O[C@H]1/C(=C/C(=O)OC)C[C@H]2C[C@H]([C@@H](C)O)OC(=O)C[C@H](O)C[C@@H]3C[C@H](OC(C)=O)C(C)(C)[C@](O)(C[C@@H]4C/C(=C/C(=O)OC)C[C@H](/C=C/C(C)(C)[C@]1(O)O2)O4)O3 [Bryostatin 1]", "drug sensitivity score": 0}
{"MOLECULE": "COc1ccc(-c2ccc3c(N4CCOC[C@@H]4C)nc(N4CCOC[C@@H]4C)nc3n2)cc1CO [AZD8055]", "drug sensitivity score": 12}
{"MOLECULE": "O=C(CCBr)N1CCN(C(=O)CCBr)CC1 [Pipobroman]", "drug sensitivity score": 0.6}
{"MOLECULE": "Nc1nc(Cl)nc2c1ncn2[C@@H]1O[C@H](CO)[C@@H](O)[C@@H]1F [Clofarabine]", "drug sensitivity score": 28.6}

Origin of measurements: the supplement of paper PMC8024199
